# AC50 values compiled below
- experimental.target: UniProtKB P08172
- Sequence (P08172 whole entry): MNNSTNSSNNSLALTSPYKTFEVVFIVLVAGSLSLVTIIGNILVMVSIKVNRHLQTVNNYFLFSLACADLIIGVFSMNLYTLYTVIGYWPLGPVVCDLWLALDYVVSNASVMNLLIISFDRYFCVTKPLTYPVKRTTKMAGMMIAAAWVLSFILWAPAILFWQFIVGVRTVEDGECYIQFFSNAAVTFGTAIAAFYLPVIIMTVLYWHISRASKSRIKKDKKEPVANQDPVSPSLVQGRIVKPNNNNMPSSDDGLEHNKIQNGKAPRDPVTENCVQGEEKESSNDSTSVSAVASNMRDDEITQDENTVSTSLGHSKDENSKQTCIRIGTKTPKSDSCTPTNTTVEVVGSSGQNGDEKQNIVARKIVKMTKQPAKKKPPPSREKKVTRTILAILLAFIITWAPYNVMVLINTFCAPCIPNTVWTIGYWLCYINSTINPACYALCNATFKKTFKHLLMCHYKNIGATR
- Assay type: functional, cell-based

{"compound": "COc1ccc(CCNCC(O)COc2cccc(C)c2)cc1OC (centres undefined) [BEVANTOLOL]", "AC50": "> 10 µM"}

# input compound: CN1C(=O)C(O)N=C(c2ccccc2Cl)c2cc(Cl)ccc21 (centres undefined) [LORMETAZEPAM] ; wanted: its AC50 17 µM

# input compound: Nc1nc(Cl)nc2c1ncn2[C@H]1C[C@H](O)[C@@H](CO)O1 [CLADRIBINE] ; wanted: its AC50 > 30 µM

# input compound: COCCCN1CCC(NC(=O)c2cc(Cl)c(N)c3c2OCC3)CC1 [PRUCALOPRIDE] ; wanted: its AC50 > 30 µM

# input compound: Cc1ccc(-n2nccn2)c(C(=O)N2CCN(c3nc4cc(Cl)ccc4o3)CC[C@H]2C)c1 [SUVOREXANT] ; wanted: its AC50 > 30 µM

# input compound: C1CCC(C(CC2CCCCN2)C2CCCCC2)CC1 (centres undefined) [PERHEXILINE] ; wanted: its AC50 4.9 µM

# input compound: O=C(OCC(O)CO)c1ccccc1Nc1ccnc2cc(Cl)ccc12 (centres undefined) [GLAFENINE] ; wanted: its AC50 > 10 µM

# input compound: COc1ccccc1OCCNCC(O)c1ccc(C)c(S(N)(=O)=O)c1 (centres undefined) [AMOSULALOL] ; wanted: its AC50 > 30 µM

# input compound: Clc1ccccc1C(c1ccccc1)(c1ccccc1)n1ccnc1 [CLOTRIMAZOLE] ; wanted: its AC50 > 10 µM

# input compound: C#C[C@]1(O)CC[C@H]2[C@@H]3[C@H](C)CC4=C(CCC(=O)C4)[C@H]3CC[C@@]21C [TIBOLONE] ; wanted: its AC50 > 30 µM

# input compound: Nc1ccn([C@H]2CC[C@@H](CO)O2)c(=O)n1 [ZALCITABINE] ; wanted: its AC50 > 10 µM

# input compound: CC[C@H]1OC(=O)[C@H](C)[C@@H](O[C@H]2C[C@@](C)(OC)[C@@H](O)[C@H](C)O2)[C@H](C)[C@@H](O[C@@H]2O[C@H](C)C[C@H](N(C)C)[C@H]2O)[C@](C)(O)C[C@@H](C)CN(C)[C@H](C)[C@@H](O)[C@]1(C)O [AZITHROMYCIN] ; wanted: its AC50 > 10 µM

# input compound: CCCN1C[C@H](CSC)C[C@@H]2c3cccc4[nH]cc(c34)C[C@H]21 [PERGOLIDE] ; wanted: its AC50 > 30 µM

# input compound: Cc1cccc(Nc2ccccc2C(=O)O)c1C [MEFENAMIC ACID] ; wanted: its AC50 > 10 µM

# input compound: O=C(O)/C=C/c1ccc(Cn2ccnc2)cc1 [OZAGREL] ; wanted: its AC50 > 30 µM

# input compound: COc1ccccc1N1CCN(CC(O)COc2cccc3ccccc23)CC1 (centres undefined) [NAFTOPIDIL] ; wanted: its AC50 > 30 µM

# input compound: CC(C)C[C@H]1C(=O)N2CCC[C@H]2[C@]2(O)O[C@](NC(=O)[C@@H]3C=C4c5cccc6[nH]c(Br)c(c56)C[C@H]4N(C)C3)(C(C)C)C(=O)N12 [BROMOCRIPTINE] ; wanted: its AC50 28 µM

# input compound: COc1ccc(C(=O)Nc2ccccc2CCC2CCCCN2C)cc1 (centres undefined) [ENCAINIDE] ; wanted: its AC50 > 10 µM

# input compound: CCCC1O[C@@H]2C[C@H]3[C@@H]4CCC5=CC(=O)C=C[C@]5(C)[C@H]4[C@@H](O)C[C@]3(C)[C@]2(C(=O)CO)O1 (some centres undefined) [BUDESONIDE] ; wanted: its AC50 > 10 µM
